test_description: Intrinsic clearance in rat hepatocytes measured up to 120 mins under shaking condition by LC-MS/MS analysis
Assay type: ADME, cell-based, Hepatocyte
test_settings: read-out: CLH
In this section, each of the compounds is paired with its reported CLint scaled.
Expressed in mL/min/kg, but write only the number.

Known CLint scaled results, listed for orientation:
QUERY: Query (compound): O=C1CN(c2cn[nH]c(=O)c2Cl)CCN1Cc1ccccc1OC(F)(F)F ; field requested: CLint scaled
RESULT: 147

QUERY: Query (compound): O=C1CN(c2cn[nH]c(=O)c2Cl)CCN1Cc1ccc(F)cc1C(F)(F)F ; field requested: CLint scaled
RESULT: 26

// next item, CLint scaled requested
QUERY: Query (compound): O=C1CN(c2cn[nH]c(=O)c2Cl)CCN1Cc1ccccc1C(F)(F)F ; field requested: CLint scaled
RESULT: 94
